- target_or_test_system: T1, human CD3 expressed on cells (human, UniProt P07766 23-207; P04234 22-171; P09693 23-182)
- T1 construct: whole, on cells; CD3 complex on Jurkat cells and on human primary T cells
- T1 sequence (P07766 23-207, chain 1 of 3): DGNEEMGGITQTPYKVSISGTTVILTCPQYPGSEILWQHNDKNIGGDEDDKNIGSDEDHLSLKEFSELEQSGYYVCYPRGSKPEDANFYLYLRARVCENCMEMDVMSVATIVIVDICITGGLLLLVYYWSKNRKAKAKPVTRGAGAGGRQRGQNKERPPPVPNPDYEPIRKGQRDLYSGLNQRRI
- T1 sequence (P04234 22-171, chain 2 of 3): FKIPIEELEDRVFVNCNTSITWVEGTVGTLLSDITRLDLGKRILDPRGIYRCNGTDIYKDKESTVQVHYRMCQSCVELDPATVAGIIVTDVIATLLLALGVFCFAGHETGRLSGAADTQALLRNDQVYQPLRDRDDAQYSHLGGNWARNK
- T1 sequence (P09693 23-182, chain 3 of 3): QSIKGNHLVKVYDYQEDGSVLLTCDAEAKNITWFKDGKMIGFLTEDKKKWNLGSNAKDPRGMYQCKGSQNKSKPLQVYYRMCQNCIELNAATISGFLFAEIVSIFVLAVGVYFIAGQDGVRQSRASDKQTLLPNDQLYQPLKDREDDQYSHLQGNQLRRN
- assay: flow cytometry, 25 nM
test_readout: Human primary T Cell Binding (FOI)

- mAb 103 (antibody, V domains shown) VH: QVQLVQSGAEVMKPGASVKVSCKASGYTFTDFYIHWVRQAPGQGLEWMGWINPKSGNTRFAQKFQGRVTMTRDTSIATSYMELSRLRSDDTAVFYCARMGDLLALDYWGQGTLVTVSS VL: EIVLTQSPATLSLSPGERATLSCRASQSVSSYLAWYQQKPGQAPRLLIYDASNRATGIPARFSGSGSGTDFTLTISSLEPEDFAVYYCQQRSNWYTFGQGTKLEIK: 0.526
- mAb 145 (antibody, V domains shown) VH: QVQLVQSGAEVKKPGASVKVSCKASGYTFTNYYIHWVRQAPGQGLDWMGIINPSGGITGYAQKFQGRVTMTRDTSTTTVYMELSSLRSDDTAVYYCARGVRGNYYYYYMDVWGKGTTVTVSS VL: EIVLTQSPDFQSVTPKEKVTITCRASQSIGSKLHWYQQKPDQSPKLLIKFASQSFSGVPSRFSGSGSGTDFNLTINSLEPEDAATFYCHQSSGLPYTFGQGTKLEIK: 217
- mAb 156 (antibody, V domains shown) VH: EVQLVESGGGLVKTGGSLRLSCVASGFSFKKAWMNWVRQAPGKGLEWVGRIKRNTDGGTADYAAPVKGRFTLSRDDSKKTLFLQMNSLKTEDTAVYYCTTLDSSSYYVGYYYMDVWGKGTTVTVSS VL: DIQMTQSPSSVSASVGDRVIITCRASQDINNWLAWYQQKAGKAPKLLIYTASSLQSGVPSRFSGSGSGTDFTLTIGSLQPEDFATYYCQQAHSLPITFGQGTRLEIK: 243
- mAb 148 (antibody, V domains shown) VH: QVQLVQSGAEVKKPGASVKVSCKASGYTFTAYHTHWVRQAPGQGLEWMGWIYPKSGRTTYTQKFQGRVTMTRDTSISTVYMELSRLKSDDTAVYYCARVGALLFDYWGQGTLVTVSS VL: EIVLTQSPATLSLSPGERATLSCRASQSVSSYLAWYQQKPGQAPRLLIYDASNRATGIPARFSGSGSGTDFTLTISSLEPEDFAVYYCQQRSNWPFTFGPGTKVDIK: 1.44
- mAb 141 (antibody, V domains shown) VH: QVQLVQSGAEVKKPGASVKVSCKASGYTFTSYYIHWVRQAPGQGLDWMGIINPSGGITGYAQKLQGRVTMTRDTSTTTVYMELSSLRSDDTAVYYCARGVRGNYYYYYMDVWGKGTTVTVSS VL: EIVLTQSPDFQSVTPKEKVTITCRASQSIGSKLHWYQQKPDQSPKLLIKYASQSFSGVPSRFSGSGSGTDFNLTINSLEAEDAATFYCHQSSGLPYTFGQGTKLEIK: 310
- mAb 96 (antibody, V domains shown) VH: QAHLVESGGGVVQPGRSLRLSCSASGFTFSGYGMHWVRQAPGKGLEWVSLIYFDGRNKYYADSVKGRFTISRDNSKNTLYLQMNSLRAEDTAVYYCARGGGYNWFDPWGQGTLVTVSS VL: DIQMTQSPSSLSASVGDRVTITCRASQSINNYLSWYQQKPGKAPKLLIYLASNLQSGVPSRFSGNGSGTDFTLTISSLQPEDFATYYCQLSYRSPFTFGPGTKVDVK: 189
- mAb 157 (antibody, V domains shown) VH: EVQLVESGGGLVKTGGSLRLSCVASGFSFKKAWMNWVRQAPGKGLEWVGRIKRTADGGATDYAAPVKGRFTLSRDDSKNTLYLQMNSLKTEDTAVYYCTTLDSSSWYVGYYYMDVWGKGTTVTVSS VL: DIHMTQAPSSVSASVGDRVTFTCRASQDINNWLAWYQQKPGKAPKLLIYTASSLQSGVPSRFSGSGSGTDFTLTISSLQPEDFATYYCQQAHSLPITFGQGTRLGIK: 265
- mAb 89 (antibody, V domains shown) VH: QVQLVQSGAEVKKPGASVKVSCKASGYTFAGYYLHWVRQAPGQGLEWMGWINPNSGRTESAQKFQGRVTLTRDTSITTAYMALSRLRSDDTAIYYCTRLEQLVFDYWGQGTLVTVSS VL: DIQMTQSPSSLSASVGDRVTITCRASQGISNYLAWFQQKPGKAPKSLIYAASSLQSGVPSKFSGSGSGTDFTLTISSLQPEDFATYYCQQYNSYPITFGQGTRLEIK: 0.594
- mAb 45 (antibody, V domains shown) VH: QAQLVQSGSELKKPGASVKVSCKASGYTFTKHSMNWVRQAPGQGLEWMGWINTNTGNPMYGQGFTGRFVFSLDTSMTTTYLQISSLKAEDTAIYYCAREGDYDLWRGFFNFDYWGQGTLVTVSS VL: DIQMTQSPSSLSASVGDRVTITCRASQGIRNDLGWYQQKPGKAPKRLIYAASSLQSGVPSRFSGSGSGAEFTLTISSLQPEDFATYYCLQHNSYPRTFGQGTKVEIK: 0.891
- mAb 159 (antibody, V domains shown) VH: EVQLVESGGGLVQPGRSLRLSCAASGFTFNGYTMHWVRQVPGKGLEWVSGISWNSGSVGYADSVKGRFTISRDNAKNSLFLQMNSLRAEDTALYYCAKDSSGYGHYYYYYMDVWGKGTTVTVSS VL: EIVMTQSPATLSVSPGERATLSCRASQSVRNNLAWYQQKPGQAPRLLIYGASTRATGIPARFSGSGSGTEFTLTISSLQSEDFALYYCQLYNNWPHFGQGTRLEIK: 171

Data credit: patent US20230295310A1
